target: FAD-linked sulfhydryl oxidase ALR (Homo sapiens, UniProt P55789); assay: ALR-catalysed DTT oxidation blockers – biochemical, H2O2 detection, luminescence, cherry-pick, dose response (AID 493248)
Sequence (P55789 whole entry): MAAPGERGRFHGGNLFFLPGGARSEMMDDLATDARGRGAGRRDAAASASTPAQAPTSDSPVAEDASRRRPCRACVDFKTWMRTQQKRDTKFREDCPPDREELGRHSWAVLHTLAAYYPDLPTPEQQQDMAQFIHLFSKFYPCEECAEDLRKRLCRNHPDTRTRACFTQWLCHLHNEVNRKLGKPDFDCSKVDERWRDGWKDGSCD
Active and inactive are the calls of the source. Rule as the data show it: actives have a measured AC50 and inactives only a lower limit.
Readout: AC50

Answered cases to consult:
{"Compound": "C=CCN1C(=O)NC(=O)/C(=C/c2cc3c4c(c2)CCCN4CCC3)C1=O", "AC50": "2.31 µM (active)"}
{"Compound": "Nc1[nH]c(N=NC(=O)c2ccc(F)cc2)c2ccccc12", "AC50": "0.24 µM (active)"}

Shifting focus to the compound that follows.
INPUT: // lookup AC50 for COc1cc(OC)cc(C(=O)N2CCCC(Nc3ccc(F)cc3)C2)c1 (stereo not drawn)
OUTPUT: 1.97 µM (active)

Measured values drawn from ChEMBL document CHEMBL1201862 for this set.
